target: T1, Human EphA2 (Ecto) (Human, UniProt P29317 24-537); test: FP competition; competitor Compound 18
T1 construct: extracellular domain
T1 sequence (P29317 24-537): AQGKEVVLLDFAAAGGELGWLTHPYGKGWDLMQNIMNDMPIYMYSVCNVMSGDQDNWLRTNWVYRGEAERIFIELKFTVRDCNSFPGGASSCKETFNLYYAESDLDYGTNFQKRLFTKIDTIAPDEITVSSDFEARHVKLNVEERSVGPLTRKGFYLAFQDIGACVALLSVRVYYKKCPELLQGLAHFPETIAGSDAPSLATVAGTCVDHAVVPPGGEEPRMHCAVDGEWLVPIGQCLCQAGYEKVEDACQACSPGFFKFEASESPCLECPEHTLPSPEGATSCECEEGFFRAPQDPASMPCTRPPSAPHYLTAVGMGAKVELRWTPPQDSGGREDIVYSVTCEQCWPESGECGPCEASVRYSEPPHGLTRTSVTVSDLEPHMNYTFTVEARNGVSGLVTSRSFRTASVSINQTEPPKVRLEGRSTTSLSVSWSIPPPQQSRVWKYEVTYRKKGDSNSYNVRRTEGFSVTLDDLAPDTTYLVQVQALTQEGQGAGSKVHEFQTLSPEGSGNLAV
Numbered stars: 1 amine (or outer) side, 2 acyl side, 3 side chain; on linkers, the order of the positions; unused ones are H or OH. Bridge positions count the residues as written; N and C are the ends. Square brackets hold non-standard residues; d marks the D form. Ends that are not written are not given here. 1Nal = N[C@@H](Cc1cccc2ccccc12)C(=O)O; TBMB = c1c(C[*:1])cc(C[*:3])cc1C[*:2]; hArg = N=C(N)NCCCC[C@H](N)C(=O)O; Tle = CC(C)(C)[C@H](N)C(=O)O; Aib = CC(C)(N)C(=O)O; βAla = NCCC(=O)O; Sar = CNCC(=O)O
Binary call on Ki with cut-off 1 nM: strictly below means Condition met, and equality or higher means Condition not met.

| binder | class_label |
| --- | --- |
| ADVTCPWGPFWCPVNRPGCA (linker 5-12-19 via TBMB) [Compound 58] | Condition not met |
| [Sar][Sar]ACP[1Nal]G[Aib]FWCP[Tle]NRPGC (linker 4-11-18 via TBMB) [Compound 126] | Condition not met |
| [βAla][Sar][Sar][Sar][Sar][Sar][Sar][Sar][Sar][Sar][Sar]H[dD]VPCP[1Nal]G[Aib]F[1Nal]CP[Tle]NRPGC (linker 16-23-30 via TBMB) [Compound 252] | Condition met |
| Ac-[Sar][Sar]AH[dD][Tle]PCPWGPFWCPVNRPGC (linker 8-15-22 via TBMB) [Compound 211] | Condition not met |
| [Sar][Sar]ACP[1Nal]GPFWCP[Tle]N[hArg]PGC (linker 4-11-18 via TBMB) [Compound 130] | Condition met |
